Ref: ChEMBL document CHEMBL3879914

biological target: Vasoactive intestinal polypeptide receptor 2 (Homo sapiens); assay: Antagonist activity at recombinant human N-terminal signal peptide/FLAG epitope-tagged VIPR2 expressed in HEK293 cells co-expressing CAMYEL assessed as inhibition of VIP-induced cAMP accumulation at 5 uM preincubated for 5 mins with luciferin, coelenterazine H followed by VIP addition measured after 5 mins by BRET assay relative to control; assay type: functional, cell-based
Quantity: inhibition (%)

# example entries with known answers
O=C(NC[C@@H](O)C[C@@H](Cc1ccccc1)C(=O)N[C@H]1c2ccccc2C[C@H]1O)C(Cl)Cl: 19.6
O=C(N[C@H]1c2ccccc2C[C@H]1O)[C@H](Cc1ccccc1)C[C@H](O)CNS(=O)(=O)c1ccc(C(=O)N2CCOCC2)cc1: 25.5
CN(C)c1ccc(S(=O)(=O)NC[C@@H](O)C[C@@H](Cc2ccccc2)C(=O)N[C@H]2c3ccccc3C[C@H]2O)cc1: -3.4
O=C(NC1Cc2ccccc2C1)[C@H](Cc1ccccc1)C[C@H](O)CNS(=O)(=O)c1ccc([N+](=O)[O-])cc1: 16
COc1ccc(S(=O)(=O)NC[C@@H](O)C[C@@H](Cc2ccccc2)C(=O)N[C@H]2c3ccccc3C[C@H]2O)cc1: 93.8
O=C(NN1CCCCC1)[C@@H](Cc1ccccc1)C[C@H](O)CNS(=O)(=O)c1ccc([N+](=O)[O-])cc1: 6
O=C(NC[C@@H](O)C[C@@H](Cc1ccccc1)C(=O)N[C@H]1c2ccccc2C[C@H]1O)c1ccc([N+](=O)[O-])cc1: 21.1
O=C(NCCc1cccc(Cl)c1)[C@@H](Cc1ccccc1)C[C@H](O)CNS(=O)(=O)c1ccc([N+](=O)[O-])cc1: 13

A. CC(C)c1cc(C(C)C)c(S(=O)(=O)NC[C@@H](O)C[C@@H](Cc2ccccc2)C(=O)N[C@H]2c3ccccc3C[C@H]2O)c(C(C)C)c1
B. Cc1ccc(S(=O)(=O)NC[C@@H](O)C[C@@H](Cc2ccccc2)C(=O)N[C@H]2c3ccccc3C[C@H]2O)c(C)c1
Given the listed records, identify the one among A and B with higher inhibition. In your reply, give the label of the chosen option.
A

P. O=C(NC1CCCCCC1)[C@@H](Cc1ccccc1)C[C@H](O)CNS(=O)(=O)c1ccc([N+](=O)[O-])cc1
Q. NC(=O)[C@H](Cc1ccccc1)C[C@H](O)CNS(=O)(=O)c1ccc([N+](=O)[O-])cc1
R. O=C(N[C@H]1c2ccccc2C[C@H]1O)[C@H](Cc1ccccc1)C[C@H](O)CNS(=O)(=O)c1ccccc1F
Please put the entries in order of rising inhibition. API: response body holds the labels in the requested order.
Q, P, R
